Kindly state log10(Kd) for each of the entries shown.
# ASSAYED_TARGET: T1, Recombinant hIL-21-Fc (AcroBiosystems) (human, UniProt Q9HBE4 30-162)
# T1 construct: bought; also called rhIL-21; not shown: Fc of the bought reagent, not described
# T1 sequence (Q9HBE4 30-162): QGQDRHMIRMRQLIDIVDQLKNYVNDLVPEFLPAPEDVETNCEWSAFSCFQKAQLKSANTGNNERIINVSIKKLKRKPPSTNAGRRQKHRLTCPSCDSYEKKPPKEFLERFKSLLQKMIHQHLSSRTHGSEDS
# MEASUREMENT_PROTOCOL: SPR, Fab on captured rhIL-21-Fc
// units: nM (pre-log); metric: Kd; scale: log10

INPUT: Please look up its log10(Kd): ZAP122m11 Fab (Fab, V domains shown, Fab) VH: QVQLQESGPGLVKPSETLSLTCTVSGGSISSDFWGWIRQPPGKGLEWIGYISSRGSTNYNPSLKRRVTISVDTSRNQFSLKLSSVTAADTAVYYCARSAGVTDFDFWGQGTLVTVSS VL: DIQMTQSPSSVSASVGDRVTITCRASQGISSWLAWYQHKPGKAPKLLIYVASSLQSGVPSRFSGSGSGTDFTLTISSLQPEDFATYYCQQANSFPLAFGGGTKVEIK
OUTPUT: -1.39

INPUT: Here is the next binder: ZAP122m12 Fab (Fab, V domains shown, Fab) VH: QVQLQESGPGLVKPSETLSLTCTVSGGSISSYFWGWIRQPPGKGLEWIGYISSRGSTNYNPSLKRRVTISVDTSRNQFSLKLSSVTAADTAVYYCARSAGVTDFDFWGQGTLVTVSS VL: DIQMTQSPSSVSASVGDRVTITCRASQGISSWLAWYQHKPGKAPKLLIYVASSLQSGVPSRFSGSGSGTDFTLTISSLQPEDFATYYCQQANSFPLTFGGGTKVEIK
OUTPUT: 0.95

INPUT: Now the binder ZAP122p1 Fab (Fab, V domains shown, Fab) VH: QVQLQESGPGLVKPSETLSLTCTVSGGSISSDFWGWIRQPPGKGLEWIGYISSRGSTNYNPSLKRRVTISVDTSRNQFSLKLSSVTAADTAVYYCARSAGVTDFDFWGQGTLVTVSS VL: DIQMTQSPSSVSASVGDRVTITCRASQGISSWLAWYQHKPGKAPKLLIYVASSLQSGVPSRFSGSGSGTDFTLTISSLQPEDFATYYCQQAQSFPLTFGGGTKVEIK
OUTPUT: -1.41

INPUT: Similarly, ZAP122m8 Fab (Fab, V domains shown, Fab) VH: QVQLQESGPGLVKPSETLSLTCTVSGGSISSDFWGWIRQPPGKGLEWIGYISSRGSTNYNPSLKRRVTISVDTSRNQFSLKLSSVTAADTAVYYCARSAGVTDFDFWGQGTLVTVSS VL: DIQMTQSPSSVSASVGDRVTITCRASQGISSWLAWYQHKPGKAPKLLIYVASSLQSGVPSRFSGSGSGTDFTLTISSLQPEDFATYYCQQANSAPLTFGGGTKVEIK ?
OUTPUT: 0.98

INPUT: Would you mind doing ZAP122m25 Fab (Fab, V domains shown, Fab) VH: QVQLQESGPGLVKPSETLSLTCTVSGGSISSDFWGWIRQPPGKGLEWIGYISSRGSTNYNPSLKRRVTISVDTSRNQFSLKLSSVTAADTAVYYCARSAGVTDADFWGQGTLVTVSS VL: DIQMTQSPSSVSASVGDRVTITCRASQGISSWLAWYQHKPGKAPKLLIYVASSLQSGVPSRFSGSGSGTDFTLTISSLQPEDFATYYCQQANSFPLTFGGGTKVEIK as well?
OUTPUT: 0.75

INPUT: Another binder to look at: ZAP122m21 Fab (Fab, V domains shown, Fab) VH: QVQLQESGPGLVKPSETLSLTCTVSGGSISSDFWGWIRQPPGKGLEWIGYISSRGSTNYNPSLKRRVTISVDTSRNQFSLKLSSVTAADTAVYYCARSAAVTDFDFWGQGTLVTVSS VL: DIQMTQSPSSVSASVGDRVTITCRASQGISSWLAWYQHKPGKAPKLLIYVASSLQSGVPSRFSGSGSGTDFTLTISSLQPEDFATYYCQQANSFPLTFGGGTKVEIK
OUTPUT: 0.34

INPUT: Then ZAP122m13 Fab (Fab, V domains shown, Fab) VH: QVQLQESGPGLVKPSETLSLTCTVSGGSISSDYWGWIRQPPGKGLEWIGYISSRGSTNYNPSLKRRVTISVDTSRNQFSLKLSSVTAADTAVYYCARSAGVTDFDFWGQGTLVTVSS VL: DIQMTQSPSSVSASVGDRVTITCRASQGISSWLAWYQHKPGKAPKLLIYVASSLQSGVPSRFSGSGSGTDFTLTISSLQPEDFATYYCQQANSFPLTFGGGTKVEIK ?
OUTPUT: -1.25

All figures here come from patent EP4671273A1.
